# system-name: PE-labeled human PD-L1-Ig binding to Jurkat cell line over-expressing human PD-1 (Jurkat-PD-1) (Homo sapiens)
# Construct: expressed in transfected cells; host or cells: Jurkat
# Sequence (Q15116 25-288): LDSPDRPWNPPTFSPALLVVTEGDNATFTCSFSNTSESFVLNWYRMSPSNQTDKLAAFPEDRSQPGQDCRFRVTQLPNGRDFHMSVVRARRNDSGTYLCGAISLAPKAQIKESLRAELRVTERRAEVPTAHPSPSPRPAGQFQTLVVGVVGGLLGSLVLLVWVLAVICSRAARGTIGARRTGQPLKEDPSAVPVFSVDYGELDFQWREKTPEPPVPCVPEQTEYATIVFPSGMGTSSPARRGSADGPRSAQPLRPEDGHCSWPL
# experiment-summary: Jurkat-PD-1 Cell Binding High-Content Screening Assay (CBA): Method 1
# test-settings: Jurkat-hPD-1 cells, PE-labeled PD-L1-Ig 20 nM final; read-out: Jurkat HPDL1 PD1 IC50 (uM) (Method 1)
Bridge positions count the residues as written; N and C are the ends. Square brackets hold non-standard residues; d marks the D form. Peptide text beside a SMILES is read from it. Bip = N[C@@H](Cc1ccc(-c2ccccc2)cc1)C(=O)O; Phe(3-OMe) = COc1cccc(C[C@H](N)C(=O)O)c1; Phe(2-Cl) = N[C@@H](Cc1ccccc1Cl)C(=O)O; Cit = NC(=O)NCCC[C@H](N)C(=O)O; dPip = O=C(O)[C@H]1CCCCN1; NMeA = CN[C@@H](C)C(=O)O; Nle = CCCC[C@H](N)C(=O)O; Orn = NCCC[C@H](N)C(=O)O; Dab = NCC[C@H](N)C(=O)O; Dap = NC[C@H](N)C(=O)O
quantity-measured: IC50 (µM)
Return type: number; implicit unit µM.

// worked examples, IC50 included
compound	quantitative-readout
CC(C)C[C@@H]1NC(=O)[C@H](Cc2c[nH]c3ccccc23)NC(=O)[C@H](CC(=O)O)NC(=O)[C@H](Cc2ccc(O)cc2)NC(=O)[C@H](Cc2ccccc2)NC(=O)CSC[C@@H](C(=O)N[C@@H](C)C(N)=O)NC(=O)[C@H](CO)NC(=O)[C@H](CCCN)NC(=O)[C@H](CC(C)C)NC(=O)[C@H](CC(N)=O)NC(=O)[C@@H](CC(C)C)NC(=O)[C@H](C)N(C)C(=O)[C@H](C(C)C)NC(=O)[C@H](Cc2ccc(-c3ccccc3)cc2)NC1=O [Compound 1537] ({CH2CO}-FYDWL[Bip]V[NMeA][dL]NL[Orn]SCA-NH2; thioether N-14)	0.02
CC(C)C[C@@H]1NC(=O)[C@H](Cc2c[nH]c3ccccc23)NC(=O)[C@H](CC(=O)O)NC(=O)[C@H](Cc2ccc(O)cc2)NC(=O)[C@H](Cc2ccccc2)NC(=O)CSC[C@@H](C(=O)NCC(N)=O)NC(=O)[C@H](CO)NC(=O)[C@H](C(C)C)NC(=O)[C@H](CC(C)C)NC(=O)[C@H](CC(N)=O)NC(=O)[C@@H](CC(C)C)NC(=O)[C@H](C)N(C)C(=O)[C@H](CCCNC(N)=O)NC(=O)[C@H](Cc2ccc(-c3ccccc3)cc2)NC1=O [Compound 1509] ({CH2CO}-FYDWL[Bip][Cit][NMeA][dL]NLVSCG-NH2; thioether N-14)	0.02
CC(C)C[C@@H]1NC(=O)[C@H](Cc2c[nH]c3ccccc23)NC(=O)[C@H](CC(=O)O)NC(=O)[C@H](Cc2ccc(O)cc2)NC(=O)[C@H](Cc2ccccc2)NC(=O)CSC[C@@H](C(=O)N[C@@H](C)C(N)=O)NC(=O)[C@H]([C@@H](C)O)NC(=O)[C@H](CN)NC(=O)[C@H](CC(C)C)NC(=O)[C@H](CC(N)=O)NC(=O)[C@@H](C)NC(=O)[C@H](C)N(C)C(=O)[C@H](C(C)C)NC(=O)[C@H](Cc2ccc(-c3ccccc3)cc2)NC1=O [Compound 1535] ({CH2CO}-FYDWL[Bip]V[NMeA][dA]NL[Dap]TCA-NH2; thioether N-14)	0.36
CC(C)C[C@@H]1NC(=O)[C@H](Cc2c[nH]c3ccccc23)NC(=O)[C@H](CC(=O)O)NC(=O)[C@H](Cc2ccccc2Cl)NC(=O)[C@H](Cc2ccccc2)NC(=O)CSC[C@@H](C(=O)N[C@@H](C)C(N)=O)NC(=O)[C@H](CO)NC(=O)[C@H](C(C)C)NC(=O)[C@H](CC(C)C)NC(=O)[C@H](CC(N)=O)NC(=O)[C@@H](C)NC(=O)[C@H](C)N(C)C(=O)[C@H](C(C)C)NC(=O)[C@H](Cc2ccc(-c3ccccc3)cc2)NC1=O [Compound 1807] ({CH2CO}-F[Phe(2-Cl)]DWL[Bip]V[NMeA][dA]NLVSCA-NH2; thioether N-14)	0.24
CC(C)C[C@@H]1NC(=O)[C@H](CCCN)NC(=O)[C@@H](CC(C)C)NC(=O)[C@H](C)N(C)C(=O)[C@H](CCCNC(N)=O)NC(=O)[C@H](Cc2ccc(-c3ccccc3)cc2)NC(=O)[C@H](C(C)C)NC(=O)[C@H](Cc2c[nH]c3ccccc23)NC(=O)[C@H](CC(=O)O)NC(=O)[C@H](Cc2ccc(O)cc2)NC(=O)[C@H](CC(N)=O)NC(=O)CSC[C@@H](C(=O)NCC(N)=O)NC(=O)[C@H]([C@@H](C)O)NC(=O)[C@H](C(C)C)NC1=O [Compound 1235] ({CH2CO}-NYDWV[Bip][Cit][NMeA][dL][Orn]LVTCG-NH2; thioether N-14)	0.06

Entry COc1cccc(C[C@@H]2NC(=O)[C@H](CC(=O)O)NC(=O)[C@H](Cc3ccc(O)cc3)NC(=O)[C@H](CC(N)=O)NC(=O)CSC[C@@H](C(=O)N[C@@H](C)C(N)=O)NC(=O)[C@H]([C@@H](C)O)NC(=O)[C@H](C(C)C)NC(=O)[C@H](CC(C)C)NC(=O)[C@H](CCN)NC(=O)[C@@H](CC(C)C)NC(=O)[C@H](C)N(C)C(=O)[C@H](C(C)C)NC(=O)[C@H](Cc3ccc(-c4ccccc4)cc3)NC(=O)[C@H](C(C)C)NC2=O)c1 [Compound 1277] ({CH2CO}-NYD[Phe(3-OMe)]V[Bip]V[NMeA][dL][Dab]LVTCA-NH2; thioether N-14) ; IC50 = 0.02

Lab note: CC(C)C[C@@H]1NC(=O)[C@H](CCN)NC(=O)[C@@H](CC(C)C)NC(=O)[C@H]2CCCCN2C(=O)[C@H](C(C)C)NC(=O)[C@H](Cc2ccc(-c3ccccc3)cc2)NC(=O)[C@H](C(C)C)NC(=O)[C@H](Cc2c[nH]c3ccccc23)NC(=O)[C@H](CC(=O)O)NC(=O)[C@H](Cc2ccc(O)cc2)NC(=O)[C@H](CC(N)=O)NC(=O)CSC[C@@H](C(=O)N[C@@H](C)C(N)=O)NC(=O)[C@H]([C@@H](C)O)NC(=O)[C@H](C(C)C)NC1=O [Compound 1268] ({CH2CO}-NYDWV[Bip]V[dPip][dL][Dab]LVTCA-NH2; thioether N-14) gave IC50 of 0.11

Lab book: IC50 of CCCC[C@@H]1NC(=O)[C@H](CC(N)=O)NC(=O)[C@@H](C)NC(=O)[C@H](C)N(C)C(=O)[C@H](C(C)C)NC(=O)[C@H](Cc2ccc(-c3ccccc3)cc2)NC(=O)[C@H](CC(C)C)NC(=O)[C@H](Cc2c[nH]c3ccccc23)NC(=O)[C@H](CC(=O)O)NC(=O)[C@H](Cc2ccc(O)cc2)NC(=O)[C@H](Cc2ccccc2)NC(=O)CSC[C@@H](C(=O)N[C@@H](C)C(N)=O)NC(=O)[C@H]([C@@H](C)O)NC(=O)[C@H](C(C)C)NC1=O [Compound 1778] ({CH2CO}-FYDWL[Bip]V[NMeA][dA]N[Nle]VTCA-NH2; thioether N-14) noted as 0.07
